# Tested on: NCI-H460
# TEST: NCI tumour cell line growth inhibition, 48 h
Activity calls are given as the source filed them. Rule as the data show it: active = GI50 up to about 1.1 µM and inactive = higher.
Some compounds, each annotated with its measured GI50.

# annotated cases, reported GI50 shown
COMPOUND: Cc1cc2nc(N3C(=O)/C(=C/c4cccc([N+](=O)[O-])c4)N=C3c3ccccc3)sc2cc1C
GI50: 29.2 µM (inactive)

COMPOUND: CC(C)CNC(=O)c1c(NC(=O)c2ccccc2)sc2[nH]c(=O)n(-c3ccccc3)c(=O)c12
GI50: > 100 µM (inactive)

COMPOUND: CCOC(=O)/C(=C\c1ccc(CO)o1)P(=O)(OCC)OCC
GI50: 17 µM (inactive)

COMPOUND: CC(C)/C(Cl)=N/OC(NC(=O)Nc1ccc(Cl)c(Cl)c1)(C(F)(F)F)C(F)(F)F
GI50: 24.5 µM (inactive)

COMPOUND: O=C(O)CCC(NC(=O)c1ccc(Nc2nc3ccccc3nc2-c2cccs2)cc1)C(=O)O (stereo unspecified)
GI50: > 100 µM (inactive)

Asked: Name the reported GI50 value associated with the compound O=C(c1ccccc1)C(c1ccccc1)C1(O)C(=O)Nc2ccc(Br)cc21 (stereo unspecified)
Given back: > 100 µM (inactive)

Asked: Similarly, NC(=O)/C=c1/c2ccccc2n2nc3ccccc3c12 ?
Given back: 25.8 µM (inactive)

Asked: Now the same for CN(CC(=O)O)c1ncc2c(n1)-c1ccccc1OC2
Given back: > 100 µM (inactive)

Asked: Queued: N=C(N)SCCc1ccccn1
Given back: > 100 µM (inactive)

Asked: Same thing, different compound: O=c1/c(=C/c2ccc([N+](=O)[O-])o2)sc2n1[C@@H](c1ccc(Cl)cc1)C=C(c1cc(F)c(Cl)cc1Cl)N=2
Given back: 10 µM (inactive)

Asked: Can you check O=C1Cc2c(-c3ccccc3)cc(-c3ccccc3)nc2-c2ccccc2N1 next?
Given back: 4.01 µM (inactive)

Asked: Next record, please: COc1ccc(C2=NN(C(=N)S)C(c3ccccc3)C2)cc1 (stereo unspecified)
Given back: 30 µM (inactive)

Asked: Could you do the same for Cc1ccnc2c1ccc1nc3ccccc3n12 , please?
Given back: 45.6 µM (inactive)

###

Reported values of GI50 for individual entries
# Test system: SF-268
# TEST: NCI tumour cell line growth inhibition, 48 h
Active and inactive are the calls of the source. Cut-off read from the data, not from the text of the source: active = GI50 up to about 1.1 µM and inactive = higher.

COMPOUND: Sc1nnc(CNc2ccc(-c3nnc(S)n3-c3ccc(Cl)cc3)cc2)n1-c1ccc(Cl)cc1
TARGET_UNDER_TEST: SF-268
GI50: 30.3 µM (inactive)

COMPOUND: OC(CC(c1ccccc1)c1ccc(Cl)cc1)c1ccc(Cl)cc1 (stereo not given)
TARGET_UNDER_TEST: SF-268
GI50: 37.1 µM (inactive)

Asked: Quick check: GI50 of CC(C)C(Sc1nc(-c2ccccc2)c(-c2ccccc2)[nH]1)C(=O)NNC(=S)Nc1ccccc1 (stereo not given) ?
Given back: 24.5 µM (inactive)

Asked: Continue with CN(C)C(=S)Nc1nnc(NC23CC4CC(CC(C4)C2)C3)s1.[O-][Cl+3]([O-])([O-])O
Given back: 16.4 µM (inactive)

Asked: Repeat for the following compound: COc1ccc2c(c1)nc1n2C(N)=Nc2ccccc2S1
Given back: 16.7 µM (inactive)

###

# System: NCI-H226
# TEST: NCI tumour cell line growth inhibition, 48 h
The source made the active and inactive calls. Rule as the data show it: active = GI50 up to about 1.1 µM and inactive = higher.
Outcome field: choose from active, inactive

Illustrative cases are given below, each with its answer.
COMPOUND: COC(=O)[C@@H]1CN(C(=O)Cc2ccccc2)C(=O)N1
ASSIGNED_CATEGORY: inactive

COMPOUND: COc1cc2c(cc1Cc1c(F)cccc1Cl)nc(-c1c(F)cccc1Cl)n2Cc1c(F)cccc1Cl
ASSIGNED_CATEGORY: inactive

COMPOUND: CCCC1(N)CC(OC)OC(C)C1O (stereo unspecified)
ASSIGNED_CATEGORY: inactive

COMPOUND: OC(CC(CC(O)(C(F)(F)Cl)C(F)(F)Cl)=NNc1ccccc1)(C(F)(F)Cl)C(F)(F)Cl
ASSIGNED_CATEGORY: inactive

COMPOUND: Cc1ccc(S(=O)(=O)NNCNC(=O)c2ccccc2)cc1
ASSIGNED_CATEGORY: inactive

COMPOUND: O=C(CSc1nnc(-c2ccc(/N=C\c3ccc(Cl)cc3)cc2)o1)Nc1ccc([N+](=O)[O-])cc1
ASSIGNED_CATEGORY: inactive

COMPOUND: N=C(N)SCCc1ccccn1
ASSIGNED_CATEGORY: inactive

COMPOUND: Cc1ccccc1C(C#N)C(=O)C(=O)Nc1nc([N+](=O)[O-])cs1 (stereo unspecified)
ASSIGNED_CATEGORY: inactive

Asked: Outcome? C[C@H]1C2Cc3cc(O)ccc3[C@@]1(C)CCN2CCc1ccc(N)cc1
Given back: inactive

Asked: Note, next up: O=S1(=O)c2cc(S(=O)(=O)n3ccnc3)ccc2NC2=NCCCN21
Given back: inactive

Asked: What about Cc1ccc2nc(NC(=O)C(=O)C3C(=O)NC(=S)NC3=O)sc2c1 ?
Given back: inactive

Asked: Okay, and CCCCCCCCCCCCCCCC1(OC)C[N+](C)(C)CCO1 (stereo unspecified) ?
Given back: active

Asked: Now give it for CCOP(=O)(CCC(O)CNc1nc(N)nc(Cl)c1/N=N/c1ccc(Cl)cc1)OCC (stereo unspecified) too.
Given back: inactive
